The reported measurements were obtained from PubChem BioAssay AID1339.

# TESTED ON: UniProt P63000
# ASSAY PROTOCOL: activated Rac1 mutant nucleotide-binding inhibitors – biochemical, multiplex, GST-Rac1 beads, Bodipy-FL-GTP, flow cytometry, dose response (AID 1339)
METRIC NAME: EC50

Query: Return EC50 measured with UniProt P63000 given this compound: `CC(C)(C)C#CC(=O)c1ccc([N+](=O)[O-])cc1`
Response: 65.1 µM

Query: Repeat for the following compound: `COc1ccccc1NCc1sc(C(=O)O)cc1C`
Response: 4.26 µM

Query: Repeat for the following compound: `CCOC(=O)c1cc([N+](=O)[O-])c([N+](=O)[O-])cc1NC(C)=O`
Response: 31.5 µM

Query: Repeat for the following compound: `COc1ccc(C(=O)c2c(O)cc(-c3ccc(OC)cc3)oc2=O)cc1`
Response: 3.57 µM

Query: Repeat for the following compound: `CC(=O)Nc1cccc(C#CC(=O)c2ccc([N+](=O)[O-])cc2)c1`
Response: 14.2 µM

Query: Repeat for the following compound: `O=C(O)c1ccccc1Sc1ncnc2sc3c(c12)CCC3`
Response: 1.08 µM

Query: Repeat for the following compound: `Cc1cc(C(=O)Cn2nc(C(=O)O)c3ccccc3c2=O)c(C)n1-c1ccc(OC(F)F)cc1`
Response: 3.55 µM

Query: Repeat for the following compound: `O=C(C#Cc1ccccc1)c1ccc([N+](=O)[O-])cc1`
Response: 6.48 µM

Query: Repeat for the following compound: `O=C(O)c1cc(Sc2ccc(F)cc2)nc2ccccc12`
Response: 46.8 µM

Query: Repeat for the following compound: `CCn1nc(C(=O)OCC(=O)c2cc(C)n(Cc3cccs3)c2C)c2ccccc2c1=O`
Response: 45.6 µM

Query: Repeat for the following compound: `COc1ccccc1OCCn1cc(C(=O)O)c2ccc(Cl)cc21`
Response: 1.75 µM

Query: Repeat for the following compound: `CCCOc1ccc(OCCSc2nc3ccccc3n2CC(=O)O)cc1`
Response: 35.6 µM

Query: Repeat for the following compound: `CCOC(=O)c1c(NC(=O)/C=C/c2ccc3c(c2)OCO3)sc(C)c1CC`
Response: 30.1 µM

Query: Repeat for the following compound: `CCOc1ccc(/C=C2\SC(N3CCc4ccccc4C3)=NC2=O)cc1`
Response: 10.6 µM

Query: Repeat for the following compound: `COc1ccc(C(=O)Nc2cc(Cl)ccc2C(=O)O)cc1`
Response: 22.1 µM

Query: Repeat for the following compound: `O=C(C#Cc1ccc(F)cc1)c1ccc([N+](=O)[O-])cc1`
Response: 3.92 µM

Query: Repeat for the following compound: `O=[N+]([O-])c1cc2oc3c(c2c(C=NCc2ccccc2)c1O)CCCC3`
Response: 5.79 µM

Query: Repeat for the following compound: `CSc1ccc(/C=N/NC(=O)c2cc(O)cc(O)c2)cc1`
Response: 55.4 µM

Query: Repeat for the following compound: `CCc1ccc(NS(=O)(=O)c2ccc3[nH]cc(C(=O)N4CCc5ccccc54)c(=O)c3c2)cc1`
Response: 20.6 µM

Query: Repeat for the following compound: `COc1cc(C(=O)OCC(=O)Nc2ccc3c(c2)OC(F)(F)O3)ccc1OCc1c(C)noc1C`
Response: 14.2 µM

Query: Repeat for the following compound: `CCN(CC)c1ccc2cc(-c3nc(-c4ccc(OC)cc4)cs3)c(=O)oc2c1`
Response: 0.553 µM

Query: Repeat for the following compound: `O=C(C#Cc1ccccc1)c1cccc([N+](=O)[O-])c1`
Response: 23.5 µM
